- assayedSystem: T1, hDcn4^P (PONY domain of human DCUN1D4) (Homo sapiens, UniProt Q92564 102-292)
- T1 sequence: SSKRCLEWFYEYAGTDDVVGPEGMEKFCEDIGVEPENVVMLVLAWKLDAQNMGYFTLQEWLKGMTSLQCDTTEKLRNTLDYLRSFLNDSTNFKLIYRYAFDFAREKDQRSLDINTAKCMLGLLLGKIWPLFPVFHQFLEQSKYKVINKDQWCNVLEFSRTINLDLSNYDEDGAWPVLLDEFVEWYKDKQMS
- protocol: ITC, two values in the cell, first value
readoutType: Kd (nM)
The figure you give is taken to be in nM; do not add the unit.

Specify Kd for Ac-MLKLRQLQKKKQKENENSSSIQPN-NH2 (Synthetic peptide of the N-terminus of yeast Ubc12; also called Acetyl-yUbc12^1-24) [yUbc12^Ac1-24] and stop.
1200
